We begin with a simple list: items and their reported AUC(0-t).
- Procedure Summary: Pharmacokinetics study after separate oral administration in rats (HPLC-MS of plasma)
- Format: in vivo, Sprague-Dawley rats
- Condition Info: male, Sprague-Dawley, rat, plasma, po, 50 mg/kg, Qr group: oral Qr 50 mg/kg, rat plasma, mean ± SD, n = 5; read-out: AUC0−t (converted)
Answer format: numeric, µg·h/mL implied, no suffix.

O=C(O)[C@H]1O[C@@H](Oc2c(-c3ccc(O)c(O)c3)oc3cc(O)cc(O)c3c2=O)[C@H](O)[C@@H](O)[C@@H]1O [QG, Quercetin-3-O-β-D-glucuronide]    25.8

## Input What value of AUC(0-t) has been reported for the following compound? O=c1c(O)c(-c2ccc(O)c(O)c2)oc2cc(O)cc(O)c12 [Qr, Quercetin]
## Output 43.2

###

- Procedure Summary: Pharmacokinetics study after separate oral administration in rats (HPLC-MS of plasma)
- Assay type: in vivo, Sprague-Dawley rats
- Condition Info: male, Sprague-Dawley, rat, plasma, po, 50 mg/kg, IQ group (oral IQ 50 mg/kg), rat plasma; labelled substance = analyte; mean of 5 rats; read-out: AUC(0-t) (converted)
Observable: AUC(0-t)
Respond with a number, then the unit of measure.

O=C(O)[C@H]1O[C@@H](Oc2c(-c3ccc(O)c(O)c3)oc3cc(O)cc(O)c3c2=O)[C@H](O)[C@@H](O)[C@@H]1O [QG, Quercetin-3-O-β-D-glucuronide]    11200 ng·h/mL
O=c1c(O)c(-c2ccc(O)c(O)c2)oc2cc(O)cc(O)c12    36900 ng·h/mL

## Input What value of AUC(0-t) has been reported for the following molecule? O=c1c(O[C@@H]2O[C@H](CO)[C@@H](O)[C@H](O)[C@H]2O)c(-c2ccc(O)c(O)c2)oc2cc(O)cc(O)c12
## Output 287 ng·h/mL

###

- Procedure Summary: Pharmacokinetics study after separate oral administration in rats (HPLC-MS of plasma)
- Type: in vivo, Sprague-Dawley rats
- Condition Info: male, Sprague-Dawley, rat, plasma, po, 50 mg/kg, QG group (oral QG 50 mg/kg), rat plasma; labelled substance = analyte; mean of 5 rats; read-out: Cmax
Observable: Cmax (ng/mL)
Answer format: numeric, ng/mL implied, no suffix.

O=c1c(O)c(-c2ccc(O)c(O)c2)oc2cc(O)cc(O)c12    5170

With those in mind, consider the next molecule.
## Input What value of Cmax has been reported for the following molecule? O=C(O)[C@H]1O[C@@H](Oc2c(-c3ccc(O)c(O)c3)oc3cc(O)cc(O)c3c2=O)[C@H](O)[C@@H](O)[C@@H]1O [QG, Quercetin-3-O-β-D-glucuronide]
## Output 2040

###

- Procedure Summary: Pharmacokinetics study after separate oral administration in rats (HPLC-MS of plasma)
- Type: in vivo, Sprague-Dawley rats
- Condition Info: male, Sprague-Dawley, rat, plasma, po, 50 mg/kg, Qr group: oral Qr 50 mg/kg, rat plasma, mean ± SD, n = 5; read-out: Tmax (converted)
Observable: Tmax (min)
Answer format: numeric, min implied, no suffix.

O=c1c(O)c(-c2ccc(O)c(O)c2)oc2cc(O)cc(O)c12 [Qr, Quercetin]    54

## Input What value of Tmax has been reported for the following compound? O=C(O)[C@H]1O[C@@H](Oc2c(-c3ccc(O)c(O)c3)oc3cc(O)cc(O)c3c2=O)[C@H](O)[C@@H](O)[C@@H]1O [QG, Quercetin-3-O-β-D-glucuronide]
## Output 42

Just for reference, paper PMC6440464 is where these values come from.
